Molecular target: SARS-CoV-2 spike protein receptor binding domain (RBD) (SARS-CoV-2, UniProt P0DTC2 319-539)
Assay: ELISA, RBD coated on plate, mAb titrated

{"BINDER": "C534 (antibody, V domains shown) VH: QVQLVQSGAEVKKPGSSVRVSCKASGGTFSRNVISWVRQAPGQGLEWMGGIIPMFATANYAQKFQGRVTITADESSSTAYMELSSLRSEDTAVYYCAREDFILVSAPIRENSYYYYGMDVWGQGTTVTVSS VL: EIVLTQSPGTLSLSPGERATLSCRASQSVSSNYLAWYQQKPGQAPRLLIYDASSRATGIPDRFSGSGSGTDFTLTISRLEPEDFAVYYCQQYGGSPRTFGQGTKVEIK", "UNIT SYMBOL": "ng/mL", "EC50": 4.85}
{"BINDER": "C544 (antibody, V domains shown) VH: QVQLVQSGAEVKKPGASVKVSCKASGYTFSSHDINWVRQATGQGLEWVGWMNPNSGNTGSAQSFQGRVTLTRNASISTAYLELSSLRSEDTAVYFCARGFSLTWYFDLWGRGTLVTVSS VL: SYELTQPPSVSAAPGKTARITCGGNNIGGKNVHWYQQKPGQAPVLVVFDDSDRPSGIPERFSGSNSGNTATLTISRVEAGDEADYYCQLWDSTSDHPDVVFGGGTQLTVL", "UNIT SYMBOL": "ng/mL", "EC50": 2.34}
